test: PSAC antagonists in infected red cells, primary screen, cell-based, P. falciparum Indochina, OD700, 2 h (AID 1155);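 further: lysis reports solute entry through the parasite surface anion channel PSAC; channel blockers reduce lysis of infected cells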; conditions: P. falciparum Indochina infected erythrocytes, osmotic lysis OD700; higher = more signal, called active from +8 up or from −8 down
Would you please tag the item rule met when its z-score is 1 or above, and rule not met when it is below?

For orientation, consider the following solved cases.
CC(C)[Si](C#Cc1ccc(Oc2ccccc2)cc1)(O[Si](C#Cc1ccc(Oc2ccccc2)cc1)(C(C)C)C(C)C)C(C)C	rule met
CC(C)C(=C=CC[C@H](O)c1ccc(OCCO)cc1)CCO	rule met
O=C1C[C@@](C(=O)NCC(F)(F)F)(c2ccc([N+](=O)[O-])cc2)[C@@H](c2ccc(CO)cc2I)N1C1CCCCC1	rule met

Can CC(C)C(CO)N1C(=O)[C@@H]2C3C(=O)OCCC/C=C\[C@H]3OC23C=CCN(CCN2CCOCC2)C(=O)[C@@H]13 (stereo not given in full) be said to have z-score at or above 1?
rule not met

Quick check: does "COCCOC(=O)N1C(=O)[C@@]2(c3cc(C#CCCO)ccc31)[C@H](C(=O)N1CCCCCCC1)[C@H]1C(=O)O[C@H](c3ccccc3)[C@H](c3ccccc3)N1[C@@H]2c1ccc(OCCO)cc1" have z-score greater than or equal to 1?
rule met

Textbook exercise: given the entry "Oc1ccc2cc[n+](Cc3sc4ccccc4c3Cl)cc2c1" , state whether its z-score is greater than or equal to 1.
rule not met

====

test system: Sonic hedgehog protein (Shh); assay: small-molecule binders of Shh protein, primary screen, biochemical, small-molecule microarray, 635/667 nm fluorescence (AID 1151); conditions: small-molecule microarray binding, 635 nm fluorescence; higher = more signal;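 further: Shh protein binding to compounds spotted on small-molecule microarray slides; score combines spot fluorescence intensity with signal-to-noise across triplicate slides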
# cutoff 0.4 applies to composite z-score; >= gives T, < gives F

C=CCC(OC(C)=O)[C@@H]1[C@@H](N(Cc2ccc(-c3cccc(C(F)(F)F)c3)o2)C(=O)c2ccc(C)cc2)c2cc(OCCCO)ccc2N1C(=O)Cc1ccc2ccccc2c1 (stereo not given in full)	F

Now take the following molecule into account.
For this molecule, is measured composite z-score 0.4 or higher? "COc1ccc(CCNC(=O)[C@@]2(Sc3ccc(C)cc3)CC(=O)N(C3Cc4ccccc4C3)[C@@H]2c2ccc(CO)cc2I)cc1"
F

====

experiment: P. aeruginosa biofilm formation inhibitors, primary screen, PAO1 strain, BacTiter-Glo luminescence, LB-PBS (AID 1144); conditions: 12 h, higher = more signal
Label yes (1) when z-score is at or above -0.3; anything below gets no (0).

COC(=O)[C@]1(CCC(=O)OC(C)(C)C)N=C(c2ccc(OCCCO)cc2)O[C@@H]1c1ccccc1CN=[N+]=[N-]	yes (1)

Tell me whether z-score is at least -0.3 here: "CC(=O)NCCCC[C@@H]1NC(=O)[C@@H]2C[C@H](C(=O)NCCCCCNC(=O)CS)[C@H](c3cccc(OCCO)c3)N2C1=O"
no (0)

Tell me whether z-score is at least -0.3 here: "Cc1ccc(S[C@]2(C(=O)O)CC(=O)N(C(C)C)[C@@H]2c2ccc(CO)cc2I)cc1"
yes (1)

Would you say CN1C(=O)C2C=CC(C(O)C#Cc3ccccc3)N(N3CCCCC3)C2C1=O (stereo not given) shows z-score at minimum -0.3?
no (0)

====

assay: E. coli DRC41 culture turbidity changes, primary screen, E. coli filamentation inducer project, strain DRC41, OD650, 48 h (AID 1152);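 further: E. coli MC1000 strain DRC41 lacking acrAB efflux pump and sulA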; settings: E. coli DRC41 (acrAB sulA), higher = more signal, called active from +8 up or from −8 down
MEASURE_NAME: z-score
Numbers only.

Reference set (5 entries):
COc1ccc(CCNC(=O)[C@@H]2c3ccccc3C(=O)N(Cc3ccccc3Cl)[C@H]2c2ccc(CO)cc2)cc1	-0.497
CN1C(=O)C2C=CC(C(O)c3ccccc3)N(N(c3ccccc3)c3ccccc3)C2C1=O (stereo unspecified)	-0.84
C=CCOC(=O)[C@H]1[C@@H]2C(=O)O[C@@H](c3ccccc3)[C@@H](c3ccccc3)N2[C@@H](c2ccc(OCCOC(=O)[C@H]3C[C@H]4C(=O)N[C@@H](CCCCN(C)C)C(=O)N4[C@H]3c3ccc(O)cc3)cc2)[C@]12C(=O)Nc1ccc(I)cc12	-0.635
COc1cc2c(cc1OC)CN(C(=O)[C@@H]1[C@H]3C(=O)O[C@H](c4ccccc4)[C@H](c4ccccc4)N3[C@H](c3ccc(O)cc3)[C@@]13C(=O)Nc1ccccc13)CC2	2.38
COc1ccc([C@H]2OC[C@@H]3C[C@@H](Cc4ccccc4)C(=O)N32)cc1	-0.783

Please examine the following record next.
Consider the compound "COC(=O)[C@@]1(Cc2ccc(OC)cc2)[C@@H]2C(=CC(=O)[C@H]2CC(=O)C(=O)N2CCCC2)CN1C(=O)c1ccccc1" and give its measured z-score.
-0.97
